system: MCF-7 cells; assay: Inhibition assay of the compound of formula (I) on the proliferation of MCF-7 cells (CellTiter-Glo); assay type: cell-based; conditions: Homo sapiens, MCF7, 144 h, 6 days
MEASURED QUANTITY: pIC50
Please treat pIC50 as minus the base-10 logarithm of the molar concentration.

| COMPOUND | pIC50 |
| --- | --- |
| CC(C)c1c2cc(-c3nc(Nc4ccc(N5CCNCC5)cn4)ncc3F)ccc2nn1C [compound of formula (I)] | 7.49 |

Exercise: What value of pIC50 on MCF-7 cells does CCN1CCN(Cc2ccc(Nc3ncc(F)c(-c4ccc5nn(C)c(C(C)C)c5c4)n3)nc2)CC1 [compound of formula (a), reference compound] have?
Solution: 6.62

Where do these numbers come from? They come from patent US10626107B2.
